The origin of these recorded values is patent US20130029928A1.

assay: Phase I study CXR1002-001: plasma pharmacokinetics (LC-MS/MS); type: in vivo, human; settings: human, plasma, oral, 600 mg, Patient 021, 600 mg, person, plasma, 675 hr; read-out: Concentration
Measurement Label: concentration at 675 h (µM)
// return numeric value only (unit: µM, not printed)

Field request: concentration at 675 h | item: O=C(O)C(F)(F)C(F)(F)C(F)(F)C(F)(F)C(F)(F)C(F)(F)C(F)(F)F
847

---

assay: Phase I study CXR1002-001: plasma pharmacokinetics (LC-MS/MS); assay type: in vivo, human; details: human, plasma, oral, 950 mg, Patient 031, 950 mg, person, plasma, 172 hr; read-out: Concentration
Measurement Label: concentration at 172 h

Tell me the measured concentration at 172 h of O=C(O)C(F)(F)C(F)(F)C(F)(F)C(F)(F)C(F)(F)C(F)(F)C(F)(F)F , please.
427 µM
